target: CAMKK1 (human); assay: KINOMEscan competition binding; conditions: compound 10.0 µM
Consider the following molecules; for each one, report its kinase still bound, per cent of control.

Give the observed kinase still bound, per cent of control of "COc1cc(N2CCC(O)CC2)ccc1Nc1ncc2c(n1)N1CCc3cccc(c31)C(=O)N2C" for CAMKK1 (human).
77%

Give the observed kinase still bound, per cent of control of "O=C1NC(=O)/C(=C/c2c[nH]c(=O)c(-c3ccc(N4CCNCC4)nc3)c2)S1" for CAMKK1 (human).
14%

Give the observed kinase still bound, per cent of control of "N=C1NC(=O)/C(=C/c2ccc(-c3ccc(C(=O)Nc4ccc(N5CCNCC5)cc4)cc3O)o2)S1" for CAMKK1 (human).
32%

Give the observed kinase still bound, per cent of control of "COc1cc(N2CCN(C)CC2)ccc1Nc1ncc2c(n1)N(C)c1sccc1C(=O)N2C" for CAMKK1 (human).
57%

Give the observed kinase still bound, per cent of control of "CC(=O)Nc1ccc(-c2ccc(/C=C3\SC(=N)NC3=O)o2)c(O)c1" for CAMKK1 (human).
30%

Give the observed kinase still bound, per cent of control of "N=C1NC(=O)/C(=C/c2ccc(-c3ccc(F)cc3O)o2)S1" for CAMKK1 (human).
14%

Give the observed kinase still bound, per cent of control of "COc1cc(N2CCN(C)CC2)ccc1Nc1ncc2c(n1)N(C)c1ccccc1N(C)C2=O" for CAMKK1 (human).
73%

Give the observed kinase still bound, per cent of control of "CSC1=NC(=O)/C(=C/c2c[nH]c(=O)c(-c3ccc(NS(C)(=O)=O)cc3)c2)S1" for CAMKK1 (human).
25%

Give the observed kinase still bound, per cent of control of "COc1cc(N2CCN(C)CC2)ccc1Nc1ncc2c(n1)Nc1ccccc1NC2=O" for CAMKK1 (human).
40%
